Reference for the values: ChEMBL document CHEMBL3808334

subject_of_test: Albumin (Bos taurus, UniProt P02769)
Sequence (P02769 whole entry): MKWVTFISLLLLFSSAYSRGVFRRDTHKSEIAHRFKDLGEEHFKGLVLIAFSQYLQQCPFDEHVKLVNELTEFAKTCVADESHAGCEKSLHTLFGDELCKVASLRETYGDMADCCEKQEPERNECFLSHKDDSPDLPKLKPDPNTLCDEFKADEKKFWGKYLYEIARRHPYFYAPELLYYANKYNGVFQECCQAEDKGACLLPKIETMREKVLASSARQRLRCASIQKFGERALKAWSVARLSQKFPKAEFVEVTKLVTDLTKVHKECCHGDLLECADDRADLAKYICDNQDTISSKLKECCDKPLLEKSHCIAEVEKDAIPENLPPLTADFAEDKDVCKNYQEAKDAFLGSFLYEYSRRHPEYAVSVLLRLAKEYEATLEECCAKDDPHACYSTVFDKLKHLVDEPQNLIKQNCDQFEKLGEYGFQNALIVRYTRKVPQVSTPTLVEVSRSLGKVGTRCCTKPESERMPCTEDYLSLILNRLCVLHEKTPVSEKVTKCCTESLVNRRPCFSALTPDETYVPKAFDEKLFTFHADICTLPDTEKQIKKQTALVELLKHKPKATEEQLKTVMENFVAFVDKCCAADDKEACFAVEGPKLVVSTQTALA
procedure_text: Binding affinity to bovine serum albumin assessed as binding constant in emission spectra by Benesie-Hildebrand plot analysis
Type: ADME
details: cattle, isolated protein

- smiles_record: "OCCN1CCN(c2nc(Nc3ccc(-c4nc5ccccc5[nH]4)cc3)nc(N3CCOCC3)n2)CC1"
  K, ×10⁴ /M: 5.4
- smiles_record: "c1ccc2[nH]c(-c3ccc(Nc4nc(N5CCCCC5)nc(N5CCOCC5)n4)cc3)nc2c1"
  K, ×10⁴ /M: 5.7

====

procedure_text: Growth inhibition of human OVCAR4 cells incubated for 48 hrs by sulforhodamine B assay
Type: functional
details: OVCAR-4, 48 h, read-out: GI50

- smiles_record: "Fc1ccc(-c2nc(Nc3ccc(-c4nc5ccccc5[nH]4)cc3)nc(N3CCOCC3)n2)cc1"
  readout_unit: "nM"
  GI50: 3130
- smiles_record: "Clc1ccc(-c2nc(Nc3ccc(-c4nc5ccccc5[nH]4)cc3)nc(N3CCOCC3)n2)cc1"
  readout_unit: "nM"
  GI50: 1040
- smiles_record: "c1ccc2[nH]c(-c3ccc(Nc4nc(N5CCCCC5)nc(N5CCOCC5)n4)cc3)nc2c1"
  readout_unit: "nM"
  GI50: 3980
- smiles_record: "c1ccc(-c2nc(Nc3ccc(-c4nc5ccccc5[nH]4)cc3)nc(N3CCOCC3)n2)cc1"
  readout_unit: "nM"
  GI50: 1680
